Reference source for all entries: patent US20250145564A1

Entries and their pIC50 values follow.
# tested system: sEH (human recombinant) (Homo sapiens)
# assay explanation: sEH inhibition assay (fluorescence)
pIC50: −log10 of the molar value.

Please review the following examples before continuing.
compound: CCC1=C(C)CN(C(=O)NCCc2ccc(S(=O)(=O)N(C)C(=O)NC3CCC(CC)CC3)cc2)C1=O (stereo not shown) [Compound I-34]
readout: pIC50
result: 5.00 to 6.00
--
compound: CCC1=C(C)CN(C(=O)NCCc2ccc(S(=O)(=O)NC(=O)N[C@H]3CC[C@H](COC(=O)CN4CCCCC4)CC3)cc2)C1=O [Compound I-16]
readout: pIC50
result: 6.00 to 6.70
--
compound: CCC1=C(C)CN(C(=O)NCCc2ccc(S(=O)(=O)N(C)C(=O)N[C@H]3CC[C@H](CO)CC3)cc2)C1=O [Compound I-9]
readout: pIC50
result: 6.00 to 6.70
--
compound: CCC1=C(C)CN(C(=O)NCCc2ccc(S(=O)(=O)NC(=O)NC3CCC(C(=O)NC)CC3)cc2)C1=O (stereo not shown) [Compound I-29]
readout: pIC50
result: 5.00 to 6.00
--
compound: COc1ccc(Cl)cc1C(=O)NCCc1ccc(S(=O)(=O)N(C)C(=O)NC2CCCCC2)cc1 [Compound I-3]
readout: pIC50
result: > 6.70
--
compound: CCC1=C(C)CN(C(=O)NCCc2ccc(S(=O)(=O)N(C)C(=O)N[C@H]3CC[C@H](COCP(=O)(OCOC(=O)OC(C)C)OCOC(=O)OC(C)C)CC3)cc2)C1=O [Compound I-21]
readout: pIC50
result: 4.00 to 5.00

// next entry
In: Which pIC50 value is on record for CCC1=C(C)CN(C(=O)NCCc2ccc(S(=O)(=O)NC(=O)NC3CCC(C(=O)OC)CC3)cc2)C1=O (stereo not shown) [Compound I-26] ?
Out: 5.00 to 6.00

* * *

Recorded IC50 by entry
# tested system: sEH (human recombinant) (Homo sapiens, UniProt P34913)
# Sequence (P34913 1-555): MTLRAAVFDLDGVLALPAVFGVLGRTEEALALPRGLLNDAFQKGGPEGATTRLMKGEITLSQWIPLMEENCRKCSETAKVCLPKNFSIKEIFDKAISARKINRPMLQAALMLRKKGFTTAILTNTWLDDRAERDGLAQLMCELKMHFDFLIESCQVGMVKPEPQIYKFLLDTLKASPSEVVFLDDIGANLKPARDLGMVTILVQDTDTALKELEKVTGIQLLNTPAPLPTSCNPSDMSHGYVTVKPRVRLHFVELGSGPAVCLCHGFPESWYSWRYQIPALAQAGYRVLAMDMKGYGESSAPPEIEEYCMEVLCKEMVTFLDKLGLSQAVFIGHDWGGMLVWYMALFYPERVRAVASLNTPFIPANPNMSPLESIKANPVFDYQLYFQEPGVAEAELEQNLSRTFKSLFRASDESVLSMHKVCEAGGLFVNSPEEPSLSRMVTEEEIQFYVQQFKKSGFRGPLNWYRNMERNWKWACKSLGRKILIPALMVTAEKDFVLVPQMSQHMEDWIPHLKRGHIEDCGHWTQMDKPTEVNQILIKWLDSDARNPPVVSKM
# assay explanation: sEH inhibition assay (fluorescence)

molecule: CCC(=O)OC[C@H]1CC[C@H](NC(=O)N(C)S(=O)(=O)c2ccc(CCNC(=O)N3CC(C)=C(CC)C3=O)cc2)CC1
IC50: 1 to 10 µM
--
molecule: Cc1ccc(S(=O)(=O)N(C)C(=O)NN2CC3CCCC3C2)cc1 (stereo not drawn)
IC50: 1 to 10 µM

In: I would be grateful if you could share the reported IC50 for `CCC1=C(C)CN(C(=O)NCCc2ccc(S(=O)(=O)N(C)C(=O)N[C@H]3CC[C@H](COC(C)=O)CC3)cc2)C1=O` .
Out: 1 to 10 µM

In: Also check `CCC1=C(C)CN(C(=O)NCCc2ccc(S(=O)(=O)NC(=O)N[C@H]3CC[C@H](COC(=O)C(C)(C)C)CC3)cc2)C1=O`
Out: 1 to 10 µM

In: Likewise for CCC1=C(C)CN(C(=O)NCCc2ccc(S(=O)(=O)NC(=O)N[C@H]3CC[C@H](C(=O)OC(C)OC(=O)OC4CCCCC4)CC3)cc2)C1=O (stereo partly drawn) ?
Out: 10 to 100 µM

In: Now consider `CCC1=C(C)CN(C(=O)NCCc2ccc(S(=O)(=O)NC(=O)N[C@H]3CC[C@H](COC(=O)Nc4ccc(OC(F)(F)F)cc4)CC3)cc2)C1=O` and answer again.
Out: 1 to 10 µM

* * *

# tested system: sEH (human recombinant) (Homo sapiens)
# assay explanation: sEH inhibition assay (fluorescence)
Listed here are compounds together with their documented IC50.

compound: CCC1=C(C)CN(C(=O)NCCc2ccc(S(=O)(=O)NC(=O)N[C@H]3CC[C@H](COP(=O)(OCOC(=O)OC(C)C)OCOC(=O)OC(C)C)CC3)cc2)C1=O
tested system: sEH (human recombinant) (Homo sapiens)
IC50: 10 to 100 µM

In: Entry `CCNC(=O)OC[C@H]1CC[C@H](NC(=O)NS(=O)(=O)c2ccc(CCNC(=O)N3CC(C)=C(CC)C3=O)cc2)CC1` has what IC50?
Out: 0.2 to 1 µM

In: Follow-up entry: CCC1=C(C)CN(C(=O)NCCc2ccc(S(=O)(=O)N(C)C(=O)NC3CCC(C(=O)O)CC3)cc2)C1=O (stereo not drawn)
Out: 10 to 100 µM

In: # iterate: `Cc1cnc(C(=O)NCCc2ccc(S(=O)(=O)N(C)C(=O)NC3CCCCC3)cc2)cn1`
Out: 1 to 10 µM

In: Next up: `CCC1=C(C)CN(C(=O)NCCc2ccc(S(=O)(=O)NC(=O)N[C@H]3CC[C@H](COC(=O)C(C)C)CC3)cc2)C1=O`
Out: 1 to 10 µM

In: Now give it for `CCC1=C(C)CN(C(=O)NCCc2ccc(S(=O)(=O)NC(=O)N[C@H]3CC[C@H](COC(C)=O)CC3)cc2)C1=O` too.
Out: 1 to 10 µM

* * *

# tested system: sEH (human recombinant) (Homo sapiens, UniProt P34913)
# assay explanation: sEH inhibition assay (fluorescence);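 also: enzyme preincubated with compound 30 min at 25 °C, then substrate added and fluorescence read after 15 min at 25 °C, 320 nm and 460 nm, versus DMSO negative control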
pIC50: −log10 of the molar value.
readout: pIC50

molecule: C=CCN(C(=O)N[C@H]1CC[C@H](C)CC1)S(=O)(=O)c1ccc(CCNC(=O)N2CC(C)=C(CC)C2=O)cc1 [Compound I-6]
readout: pIC50
result: 5.00 to 6.00

In: Please look up its pIC50: Cc1ccc(S(=O)(=O)N(C)C(=O)NC2[C@@H](O)C3(C)CC[C@@H]2C3(C)C)cc1 (some centres unmarked) [Compound I-36]
Out: 5.00 to 6.00

In: Subsequent entry: CCC1=C(C)CN(C(=O)NCCc2ccc(S(=O)(=O)NC(=O)N[C@H]3CC[C@H](CO[P@](=O)(N[C@@H](C)C(=O)OC(C)C)Oc4ccccc4)CC3)cc2)C1=O [Compound I-19]
Out: 4.00 to 5.00

In: Could you do the same for CC(=O)c1ccc(S(=O)(=O)N(C)C(=O)NC2CCCCC2)cc1 [Compound I-5] , please?
Out: 6.00 to 6.70

In: Here is the next molecule: CCC1=C(C)CN(C(=O)NCCc2ccc(S(=O)(=O)N(C)C(=O)N[C@H]3CC[C@H](COC(=O)C(C)(C)C)CC3)cc2)C1=O [Compound I-44]
Out: 5.00 to 6.00

In: Record: CCC1=C(C)CN(C(=O)NCCc2ccc(S(=O)(=O)NC(=O)N[C@H]3CC[C@H](OC(N)=O)CC3)cc2)C1=O [Compound I-31]
Out: 5.00 to 6.00

In: Same again, this time with CCCC1=C(C)CN(C(=O)NCCc2ccc(S(=O)(=O)NC(=O)NC3CCC(C(=O)OC)CC3)cc2)C1=O (centres unmarked) [Compound I-30]
Out: 4.00 to 5.00

In: Next entry: CCC1=C(C)CN(C(=O)NCCc2ccc(S(=O)(=O)N(C)C(=O)N[C@H]3CC[C@H](CO[P@](=O)(N[C@@H](C)C(=O)OC(C)C)Oc4ccccc4)CC3)cc2)C1=O [Compound I-22]
Out: 4.00 to 5.00

In: Same read-out for CCC(=O)OC[C@H]1CC[C@H](NC(=O)NS(=O)(=O)c2ccc(CCNC(=O)N3CC(C)=C(CC)C3=O)cc2)CC1 [Compound I-39] ?
Out: 5.00 to 6.00

* * *

# tested system: sEH (human recombinant) (Homo sapiens)
# assay explanation: sEH inhibition assay (fluorescence)
pIC50: −log10 of the molar value.
readout: pIC50

Below, 7 molecules whose answers are already recorded.
molecule: CCC1=C(C)CN(C(=O)NCCc2ccc(S(=O)(=O)NC(=O)N[C@H]3CC[C@H](COC(=O)CN(C)C)CC3)cc2)C1=O
pIC50: 4.00 to 5.00

molecule: CCNC(=O)OC[C@H]1CC[C@H](NC(=O)N(C)S(=O)(=O)c2ccc(CCNC(=O)N3CC(C)=C(CC)C3=O)cc2)CC1
pIC50: > 6.70

molecule: CCC1=C(C)CN(C(=O)NCCc2ccc(S(=O)(=O)N(C)C(=O)N[C@H]3CC[C@H](COC(=O)C(C)C)CC3)cc2)C1=O
pIC50: 5.00 to 6.00

molecule: Cc1ccc(S(=O)(=O)N(C(=O)NN2CC3CCCC3C2)C(C)C)cc1 (centres unmarked)
pIC50: 5.00 to 6.00

molecule: CCC1=C(C)CN(C(=O)NCCc2ccc(S(=O)(=O)N(C(=O)N[C@H]3CC[C@H](C)CC3)C3CC3)cc2)C1=O
pIC50: 5.00 to 6.00

molecule: COc1ccc2c(c1)C(=O)N(CCc1ccc(S(=O)(=O)N(C)C(=O)NC3CCCCC3)cc1)C(=O)C2(C)C
pIC50: > 6.70

molecule: CCC1=C(C)CN(C(=O)NCCc2ccc(S(=O)(=O)N(C(=O)N[C@H]3CC[C@H](C)CC3)C(C)C)cc2)C1=O
pIC50: 5.00 to 6.00

As a next step, examine the molecule that follows.
In: What does the record list as pIC50 for `CCC1=C(C)CN(C(=O)NCCc2ccc(S(=O)(=O)NC(=O)N[C@H]3CC[C@H](COC(=O)NC4CC4)CC3)cc2)C1=O` ?
Out: 6.00 to 6.70
